tested on: A549 NSCLC; assay: NCI tumour cell line growth inhibition, 48 h
ASSAY_ENDPOINT: TGI (µM)
Express the result in µM but write the number alone.

Recorded TGI, per entry:
COMPOUND	TARGET_SYSTEM	ASSAY_ENDPOINT	ASSAY_VALUE
CCCCCCCc1cc2c3c(nc4ccccc42)C(=O)c2cccnc2-c3n1	A549 NSCLC	TGI	11.9
COc1ccc(-c2ccc(-c3ccc(C(=N)N)o3)o2)cc1	A549 NSCLC	TGI	4.79
OC(c1cc(C23CC4CC(CC(C4)C2)C3)nc2c(Cl)cc(Cl)cc12)C1CCCCN1 (stereo not given)	A549 NSCLC	TGI	3.08

# evaluate next
# compound N[C@H]1CCCC[C@@H]1N1C(=O)c2ccccc2C1(O)c1ccc(Cl)cc1 (stereo not given in full) ; its TGI = 25.2
